The values you see were collected from ChEMBL document CHEMBL4342498.

# System: COLO 320DM
# RUN_DESCRIPTION: Antiproliferative activity against human COLO320DM cells assessed as inhibition of cell growth measured after 4 days by CellTiter-Glo assay
# Format: functional
# ASSAY_CONDITIONS: 96 h
So basically: is GI50 under 0.7 µM? Then Y. Not under? Then N.

Some entries whose results are on file:
>>> classification("O=C1N(CCO)c2cc(F)cc(F)c2C12CCN(c1nc3c(c(=O)[nH]1)CCCC3)CC2")
"N"
>>> classification("CN1CCC(Oc2cc(F)c3c(c2)N(C)C(=O)C32CCN(c3nc4c(c(=O)[nH]3)CCCN4C)CC2)CC1")
"Y"
>>> classification("CN1CCN(c2cc(F)c3c(c2)N(C)C(=O)C32CCN(c3nc4c(c(=O)[nH]3)CCCN4C)CC2)CC1")
"Y"
>>> classification("CN(C)c1cc(F)c2c(c1)N(C)C(=O)C21CCN(c2nc3c(c(=O)[nH]2)CCCN3C)CC1")
"N"
>>> classification("CN1CCCc2c1nc(N1CCC3(CC1)C(=O)N(C)c1cc(OCCN4CCCCC4)cc(F)c13)[nH]c2=O")
"N"

QUERY: Record Cn1ccc2c(=O)[nH]c(N3CCC4(CC3)CN(CCO)c3cc(F)cc(F)c34)nc21 : is its GI50 strictly below 0.7 µM?
RESULT: N

QUERY: Record CN1CCCc2c1nc(N1CCC3(CC1)C(=O)N(C)c1cc(N4CCOCC4)cc(F)c13)[nH]c2=O : is its GI50 strictly below 0.7 µM?
RESULT: Y

QUERY: Record CS(=O)(=O)c1ccc(-c2nnc(/C=C/c3nnc(-c4ccc(C#N)cc4)o3)n2-c2ccccc2Cl)nc1 : is its GI50 strictly below 0.7 µM?
RESULT: N

QUERY: Record CN1CCCc2c1nc(N1CCC3(CC1)C(=O)N(C)c1cc(OCCN4CCOCC4)cc(F)c13)[nH]c2=O : is its GI50 strictly below 0.7 µM?
RESULT: Y

----------
# RUN_DESCRIPTION: Cmax in Sprague-Dawley rat at 3 mg/kg, po
# Type: ADME, organism-based
# Parameters: dose 3 mg/kg, route oral
# ASSAY_CONDITIONS: in vivo
PROPERTY: Cmax (µM)
Number only, in µM; omit the unit.

QUERY: Specify reported Cmax for the molecule shown: C[C@@H]1CN(c2cc(F)c3c(c2)N(C)C(=O)C32CCN(c3nc4c(c(=O)[nH]3)CCCN4C)CC2)C[C@H](C)O1
RESULT: 12.7

----------
# RUN_DESCRIPTION: Stability in rat liver microsomes assessed as parent compound remaining at 1 uM measured after 30 mins in presence of NADPH by LC-MS/MS analysis
# Assay type: ADME, Microsome
# ASSAY_CONDITIONS: read-out: Stability
Below is a list of entries, each paired with its recorded remaining at 0.5 h, 1 µM value.
Number only, in %; omit the unit.

Look over these answered cases.
>>> observed_value("O=c1[nH]c(N2CCC3(CC2)CN(CCO)c2cc(F)cc(F)c23)nc2c1CCCC2")
12.8
>>> observed_value("CN1CCCc2c1nc(N1CCC3(CC1)C(=O)N(CCO)c1cc(F)cc(F)c13)[nH]c2=O")
2
>>> observed_value("C[C@@H]1CN(c2cc(F)c3c(c2)N(C)C(=O)C32CCN(c3nc4c(c(=O)[nH]3)CCCN4C)CC2)C[C@H](C)O1")
57.3
>>> observed_value("CN1CCCc2c1nc(N1CCC3(CC1)CN(CCO)c1cc(F)cc(F)c13)[nH]c2=O")
0.4

# ---- query molecule ----
QUERY: Specify reported remaining at 0.5 h, 1 µM for the molecule shown: CN1CCN(c2cc(F)c3c(c2)N(C)C(=O)C32CCN(c3nc4c(c(=O)[nH]3)CCCN4C)CC2)CC1
RESULT: 80.2

----------
# RUN_DESCRIPTION: physchem
# ASSAY_CONDITIONS: phosphate buffered saline, pH 7.4
PROPERTY: log10(solubility at 1 h, 200 µM) (log10 of the value in µg/mL)
Base-10 log of solubility at 1 h, 200 µM, unit µg/mL.

Look over these answered cases.
>>> observed_value("CN1CCCc2c1nc(N1CCC3(CC1)C(=O)N(C)c1cc(OCCO)cc(F)c13)[nH]c2=O")
1.88
>>> observed_value("CN1CCCc2c1nc(N1CCC3(CC1)C(=O)N(C)c1cc(OCCN4CCCC4)cc(F)c13)[nH]c2=O")
2.00
>>> observed_value("CN1CCCc2c1nc(N1CCC3(CC1)C(=O)N(C)c1cc(OCCN4CCOCC4)cc(F)c13)[nH]c2=O")
2.00
>>> observed_value("CN1CCCc2c1nc(N1CCC3(CC1)C(=O)N(CC(=O)O)c1cc(F)cc(F)c13)[nH]c2=O")
1.96
>>> observed_value("CN1CCCc2c1nc(N1CCC3(CC1)C(=O)N(CS(C)(=O)=O)c1cc(F)cc(F)c13)[nH]c2=O")
0.48
>>> observed_value("CN(C)c1cc(F)c2c(c1)N(C)C(=O)C21CCN(c2nc3c(c(=O)[nH]2)CCCN3C)CC1")
0.87

QUERY: Specify reported log10(solubility at 1 h, 200 µM) for the compound shown: CN(C)CCOc1cc(F)c2c(c1)N(C)C(=O)C21CCN(c2nc3c(c(=O)[nH]2)CCCN3C)CC1
RESULT: 1.98

QUERY: Specify reported log10(solubility at 1 h, 200 µM) for the compound shown: CN1CCCc2c1nc(N1CCC3(CC1)C(=O)N(C)c1cc(N4CCCCC4)cc(F)c13)[nH]c2=O
RESULT: 0.70

QUERY: Specify reported log10(solubility at 1 h, 200 µM) for the compound shown: CN1CCCc2c1nc(N1CCC3(CC1)C(=O)N(C)c1cc(N4CCOCC4)cc(F)c13)[nH]c2=O
RESULT: 1.86

QUERY: Specify reported log10(solubility at 1 h, 200 µM) for the compound shown: CN1CCCc2c1nc(N1CCC3(CC1)C(=O)N(C)c1cc(OCC(=O)O)cc(F)c13)[nH]c2=O
RESULT: 1.99

QUERY: Specify reported log10(solubility at 1 h, 200 µM) for the compound shown: CN1CCCc2c1nc(N1CCC3(CC1)CN(CCO)c1cc(F)cc(F)c13)[nH]c2=O
RESULT: 1.60

QUERY: Specify reported log10(solubility at 1 h, 200 µM) for the compound shown: COc1cc(F)c2c(c1)N(C)C(=O)C21CCN(c2nc3c(c(=O)[nH]2)CCCN3C)CC1
RESULT: 0.68

QUERY: Specify reported log10(solubility at 1 h, 200 µM) for the compound shown: CN1CCCc2c1nc(N1CCC3(CC1)C(=O)N(CC1COC1)c1cc(F)cc(F)c13)[nH]c2=O
RESULT: 0.97

QUERY: Specify reported log10(solubility at 1 h, 200 µM) for the compound shown: COCCOc1cc(F)c2c(c1)N(C)C(=O)C21CCN(c2nc3c(c(=O)[nH]2)CCCN3C)CC1
RESULT: 1.06

QUERY: Specify reported log10(solubility at 1 h, 200 µM) for the compound shown: C[C@@H]1CN(c2cc(F)c3c(c2)N(C)C(=O)C32CCN(c3nc4c(c(=O)[nH]3)CCCN4C)CC2)C[C@H](C)N1
RESULT: 2.01

----------
# TARGET_OR_TEST_SYSTEM: Protein mono-ADP-ribosyltransferase PARP10 (Homo sapiens)
# Sequence (Q53GL7 whole entry, the tested form may be a part): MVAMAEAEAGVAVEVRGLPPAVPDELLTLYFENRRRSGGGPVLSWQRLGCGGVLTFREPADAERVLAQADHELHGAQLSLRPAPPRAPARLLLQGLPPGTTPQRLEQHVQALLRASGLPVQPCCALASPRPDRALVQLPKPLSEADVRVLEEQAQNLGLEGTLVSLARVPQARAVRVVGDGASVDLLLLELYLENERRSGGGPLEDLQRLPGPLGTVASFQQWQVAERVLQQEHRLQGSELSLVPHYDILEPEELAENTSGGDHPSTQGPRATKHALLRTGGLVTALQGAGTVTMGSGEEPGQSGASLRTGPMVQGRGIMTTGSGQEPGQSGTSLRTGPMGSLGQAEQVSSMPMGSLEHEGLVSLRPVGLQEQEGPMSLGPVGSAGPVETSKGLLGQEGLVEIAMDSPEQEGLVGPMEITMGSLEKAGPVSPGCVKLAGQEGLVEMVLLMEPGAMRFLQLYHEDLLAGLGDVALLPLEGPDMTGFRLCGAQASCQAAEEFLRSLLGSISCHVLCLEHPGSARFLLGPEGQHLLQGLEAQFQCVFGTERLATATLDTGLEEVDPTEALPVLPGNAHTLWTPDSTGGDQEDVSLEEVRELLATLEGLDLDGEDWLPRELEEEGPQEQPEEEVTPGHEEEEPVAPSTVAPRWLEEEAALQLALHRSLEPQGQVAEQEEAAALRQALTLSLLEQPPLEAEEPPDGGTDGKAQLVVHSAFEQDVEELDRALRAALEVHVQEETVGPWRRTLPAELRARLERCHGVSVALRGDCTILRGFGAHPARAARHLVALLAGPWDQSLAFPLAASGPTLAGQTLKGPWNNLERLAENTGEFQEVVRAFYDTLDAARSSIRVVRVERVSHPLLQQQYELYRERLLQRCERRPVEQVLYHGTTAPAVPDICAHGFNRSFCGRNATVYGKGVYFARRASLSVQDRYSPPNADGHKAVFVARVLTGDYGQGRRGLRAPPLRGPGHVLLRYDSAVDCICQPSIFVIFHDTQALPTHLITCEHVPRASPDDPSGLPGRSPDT
# RUN_DESCRIPTION: Inhibition of human recombinant N-terminal TEV-cleavgae site-fused-FLAG/Polyhis-tagged PARP10 […] expressed in Escherichia coli assessed as reduction in auto-PARylation using histone as substrate measured after 45 mins in presence of biotinylated-NAD+ by ELISA
PROPERTY: IC50 (µM)
Number only, in µM; omit the unit.

QUERY: Specify reported IC50 for the molecule shown: C[C@@H]1CN(c2cc(F)c3c(c2)N(C)C(=O)C32CCN(c3nc4c(c(=O)[nH]3)CCCN4C)CC2)C[C@H](C)O1
RESULT: 8.05
